B1: glmS ribozyme (parent)
chain: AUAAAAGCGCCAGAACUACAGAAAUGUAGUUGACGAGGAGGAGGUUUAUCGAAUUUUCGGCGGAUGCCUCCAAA

Variants of: B1
test_method_notes: self-cleavage kobs at 640 uM GlcN6P; higher = faster cleavage; RNA array
run_parameters: with glucosamine-6-phosphate
Fewer inactive variants are shown than the library holds.
Give self-cleavage kobs at 640 uM GlcN6P for every item shown.

Look up self-cleavage kobs at 640 uM GlcN6P: C11U G32C
< 1e-05 s⁻¹

Record self-cleavage kobs at 640 uM GlcN6P per entry; entries follow.
1. A12C U30C U57G U65C
2. A12U U47A
3. G32A U55G
4. G35A G37U C58A C70A
5. A6C C8G A48G G60U C68U

1. < 1e-05 s⁻¹
2. 0.0249 s⁻¹
3. 0.000327 s⁻¹
4. 0.000632 s⁻¹
5. < 1e-05 s⁻¹
